test system: HL-60; assay: NCI tumour cell line growth inhibition, 48 h
Calls of active or inactive are those of the source. No stated cut-off is given here; in the data, active = GI50 up to about 1.1 µM and inactive = higher.
Possible outcomes: yes (1) = active, no (0) = inactive

| compound | assigned.class |
| --- | --- |
| [N-]=[N+]=CC(=O)OC1Cc2ccccc2C1 | no (0) |
| COC(=O)C1=C(OC(=O)/C(=C/c2ccccc2)c2ccc([N+](=O)[O-])cc2)C(C(=O)OC)[C@@]2(O)[C@@H](C(=O)OC)[C@H](C)C[C@@H]1[C@@H]2C(=O)OC (stereo partly drawn) | no (0) |
| O=C(O)c1cnc(-n2[nH]c3c(c2=O)CCCC3)[nH]c1=O | no (0) |
| CCN1C=C/C(=C\C=C\c2cc[n+](CC)c3ccccc23)c2ccccc21 | yes (1) |
| CN1CCOC(C(NC(=O)c2ccccc2)c2ccccc2)C1=O (stereo not drawn) | no (0) |
| Oc1ccc(Cn2c(-c3ccc(O)cc3)nc3ccccc32)cc1 | no (0) |
| CCOP(=O)(OCC)Oc1c(OC)c2[nH]c(C(=O)OC)cc2c2c(C(=O)O)c[nH]c12 | no (0) |
| O=c1c2cc(-c3ccccc3)cnc2sn1-c1ccc(Oc2ccccc2)cc1 | no (0) |
| CCCCNC1=C(C(=O)OCC)/C(=N/NC(=O)c2ccccc2O)CO1 | no (0) |
| CC(C)(C)C1=C(Br)C(F)(C(C)(C)C)OP1(=O)c1ccccc1 (stereo not drawn) | no (0) |
| COc1ccc(-n2c(=O)c3nc(S)[nH]c3n(-c3ccc(OC)cc3)c2=S)cc1 | no (0) |
| CCN(CC)CCNC(=O)c1cccc2cc3ccccc3nc12 | no (0) |
| CCCCCCCCCCCCCCCCCCCCCCC(=O)N[C@H]1CCc2cc(OC)c(OC)c(OC)c2-c2ccc(SC)c(=O)cc21 | no (0) |
| CCOC(=O)C1C(=O)CC(=O)C2CCCCC21 (stereo not drawn) | no (0) |
| CN(C)CC1CCCC(CN(C)C)C1OC(=O)c1ccccc1 (stereo not drawn) | no (0) |
| Cc1cc2c(=O)n(-c3ccc(F)cc3)c(C)nc2c(C(=O)O)c1C | no (0) |
| CO/N=C(\C)c1cccc(Nc2c3ccccc3nc3occc23)c1 | no (0) |
| CCCCCCCCOP(=O)(O)OP(=O)(O)OCC1OC(n2ccc(N)nc2=O)C(O)C1O (stereo not drawn) | no (0) |
| CCC(=O)Nc1ccc(NCC(=O)Nc2ccc(OC)cc2)cc1 | no (0) |
| CN1CCc2c1nc(-c1ccccc1)c1c2N(C)CC1 | no (0) |
| Oc1ccc2ccccc2c1/N=N/c1ccc(/N=N/c2ccccc2)cc1 | yes (1) |
| CC(=O)CCCCCCCCCCCC[C@@H]1CC[C@H](C)[C@H](O)N1 | no (0) |
| Nn1c(S)nnc1N/N=C1/C(=O)Nc2c(Cl)cc(Cl)cc21 | no (0) |
| O=C1c2c(O)cccc2C(C2OC(CO)C(O)C(O)C2O)c2cc(CO)cc(O)c21 (stereo not drawn) | no (0) |
| COc1ccc(O)c(/C(C)=N/NC(=S)N(C)C)c1 | no (0) |
| CC(=O)C1C(=O)C(=O)N(c2ccc([N+](=O)[O-])cc2Cl)C1=O (stereo not drawn) | no (0) |
| COc1cc(/C=C(\OC(C)=O)c2ccc3c(c2)OCO3)cc(OC)c1OC | no (0) |
| Cc1c(C#N)c(=N)oc2ccccc12 | no (0) |

Entry source: ChEMBL document CHEMBL1201862
